- tested-on: T1, extracellular domain of human KLB expressed with C-terminal HA and hexahistidine tags (human, UniProt Q86Z14 1-996)
- T1 construct: also called hKLB-HA-6His; hKLB-HA-6his
- T1 sequence: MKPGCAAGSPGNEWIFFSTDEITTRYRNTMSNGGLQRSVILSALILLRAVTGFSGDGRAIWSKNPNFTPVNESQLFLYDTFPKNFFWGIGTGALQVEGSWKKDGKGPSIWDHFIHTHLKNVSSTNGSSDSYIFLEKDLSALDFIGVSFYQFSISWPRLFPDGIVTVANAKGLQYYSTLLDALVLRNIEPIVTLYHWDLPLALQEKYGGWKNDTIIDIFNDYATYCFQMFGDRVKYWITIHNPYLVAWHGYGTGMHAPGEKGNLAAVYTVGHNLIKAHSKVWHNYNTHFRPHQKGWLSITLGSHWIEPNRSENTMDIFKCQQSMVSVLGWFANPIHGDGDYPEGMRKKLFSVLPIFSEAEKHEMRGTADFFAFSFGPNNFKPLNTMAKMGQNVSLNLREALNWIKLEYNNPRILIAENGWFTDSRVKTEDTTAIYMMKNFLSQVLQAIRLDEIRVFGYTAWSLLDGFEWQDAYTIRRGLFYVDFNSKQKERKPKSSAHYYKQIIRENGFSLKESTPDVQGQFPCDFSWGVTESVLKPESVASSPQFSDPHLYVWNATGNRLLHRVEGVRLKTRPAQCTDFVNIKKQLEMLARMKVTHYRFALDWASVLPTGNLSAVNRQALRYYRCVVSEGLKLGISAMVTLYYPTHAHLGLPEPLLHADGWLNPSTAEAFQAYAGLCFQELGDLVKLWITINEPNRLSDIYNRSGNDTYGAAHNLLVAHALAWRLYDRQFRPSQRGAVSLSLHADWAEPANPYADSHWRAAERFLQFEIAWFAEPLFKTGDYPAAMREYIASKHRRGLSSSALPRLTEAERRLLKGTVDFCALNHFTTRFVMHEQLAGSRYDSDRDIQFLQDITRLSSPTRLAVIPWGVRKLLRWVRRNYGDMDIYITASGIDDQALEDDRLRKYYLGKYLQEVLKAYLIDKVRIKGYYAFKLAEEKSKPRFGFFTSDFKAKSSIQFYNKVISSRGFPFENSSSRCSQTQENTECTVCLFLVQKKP
- assay-details: SPR, mAb captured, 25 C
Property: 20 nM hKLB-HA-6His Bind (RU); scope: individual binders
State just the number; it will be interpreted in RU.

1. H4H8880P (antibody, V domains shown, human IgG4 Fc (H4H prefix)) VH: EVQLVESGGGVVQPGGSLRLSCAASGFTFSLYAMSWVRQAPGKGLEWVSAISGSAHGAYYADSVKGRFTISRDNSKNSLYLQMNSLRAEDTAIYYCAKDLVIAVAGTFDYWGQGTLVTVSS VL: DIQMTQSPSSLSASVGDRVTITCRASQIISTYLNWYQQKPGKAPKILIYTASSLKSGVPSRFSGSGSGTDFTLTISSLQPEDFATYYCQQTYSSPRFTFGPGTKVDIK
68.1

Below: the item to evaluate.
H1H8898P (antibody, V domains shown, H1H Fc prefix (human Fc)) VH: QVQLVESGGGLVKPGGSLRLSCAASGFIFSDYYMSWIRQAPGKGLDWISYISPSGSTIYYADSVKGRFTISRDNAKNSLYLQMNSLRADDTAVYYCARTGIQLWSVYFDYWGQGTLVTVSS VL: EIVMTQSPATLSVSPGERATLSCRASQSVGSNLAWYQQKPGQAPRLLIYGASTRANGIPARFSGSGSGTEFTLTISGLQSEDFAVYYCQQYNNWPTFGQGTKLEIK yielded 20 nM hKLB-HA-6His Bind (RU) of -0.2
